Values were extracted from patent US20220106391A1.

target-under-test: T1, canine beta-NGF (cNGF) (canine, UniProt Q29074 110-229 (pig entry))
T1 chain: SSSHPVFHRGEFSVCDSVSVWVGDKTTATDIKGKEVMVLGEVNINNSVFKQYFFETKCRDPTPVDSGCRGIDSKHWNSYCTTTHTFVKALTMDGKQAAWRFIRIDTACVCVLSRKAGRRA
measurement-protocol: cell-based or functional assay
reported-property: IC50 [nM] (TrkA cell based assay) (nM)
Unit nM implied. Number only.

**Query** Item under review: H3AQC2301B12L1AL1 (antibody, V domains shown, Caninized IgG) VH: EVQLVESGGDLARPGGSLKLSCVVSGFTLTQYGINWVRQAPGKGLQWVTVIWATGATDYNSALKSRFTVSRDNAMNTVYLQMNSLRVEDTAVYYCARDGWWYATSWYFDVWGQGTLVTVSS VL: DIVMTQTPLSLSVSPGEPASISCKASQSINHYLNWFRQKPDGTVKLLIYYTSRLHSGVPSRFSGSGSGTDFTLRISRVEADDAGVYYCQQGSTLPRTFGQGT . Reported IC50 [nM] (TrkA cell based assay)?
**Result** 0.65

**Query** Item under review: H3AQC2301B12LC (antibody, V domains shown, Caninized IgG, light chain QC2301B12VK) VH: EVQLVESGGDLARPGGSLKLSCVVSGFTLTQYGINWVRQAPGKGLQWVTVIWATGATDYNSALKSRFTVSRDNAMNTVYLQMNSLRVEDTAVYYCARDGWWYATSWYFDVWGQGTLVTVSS VL: DIVMTQTPLSLSVSPGEPASISCRASQDISNYLNWFRQKPDGTVKLLIYYTSRLHSGVPSRFSGSGSGTDFTLRISRVEADDAGVYYCQQGSTLPRTFGQGT . Reported IC50 [nM] (TrkA cell based assay)?
**Result** 0.8
